# test.summary: Cycloheximide Counterscreen for Small Molecule Inhibitors of Shiga Toxin; further: read at 38.3 µM for the half of the compounds with a filed dose
# conditions: cell reporter, cycloheximide protein synthesis inhibition counterscreen
The whole screen tested about 300,000 compounds, of which about 37,000 (12%) were called active. No stated cut-off is given here; in the data, active means max response mostly above about 13% (no sharp cut-off); inactive means mostly below about 14%. The sample holds actives, similar compounds and a random draw of the others, so the mix is not that of the screen.
Select the correct class. Options are t = active, f = inactive and nothing else.

>  <compound>
CC(=O)Nc1cccc(NC(=O)CSc2nccn2Cc2ccc(F)cc2)c1

>  <class.name>
f

$$$$
>  <compound>
CCN(CC)S(=O)(=O)c1cc(C(=O)Nc2ccccn2)ccc1C

>  <class.name>
t

$$$$
>  <compound>
C=CCN1C(=NC(=O)COc2ccccc2)SC2CS(=O)(=O)CC21 (centres undefined)

>  <class.name>
f

$$$$
>  <compound>
Cc1cccc(CS(=O)(=O)c2ncc(Cl)c(C(=O)Nc3ccc(F)cc3)n2)c1

>  <class.name>
t

$$$$
>  <compound>
Cc1ccc(NC(=O)NC(=O)CSc2nnc(-c3ccc(OC(F)F)cc3)n2N)c(C)c1

>  <class.name>
f

$$$$

Each compound tested received a call. Report the one for Cc1ccc(NC(=O)/C(=C/c2ccc([N+](=O)[O-])cc2)NC(=O)c2ccccc2)cc1 .
f

Each compound tested received a call. Report the one for CCC(C)(C)NC(=O)C(c1ccc(OC)cc1)N(C(=O)CCC(=O)Nc1cc(C)on1)c1ccc(OC)cc1OC (centres undefined) .
f

Each compound tested received a call. Report the one for CC(=O)Nc1ccc(NC(=O)C(C)OC(=O)c2ccccc2C(=O)c2ccc(Cl)c([N+](=O)[O-])c2)cc1 (centres undefined) .
f

Each compound tested received a call. Report the one for COc1ccc([N+](=O)[O-])cc1NC(=O)c1ccc(N(Cc2ccccc2C)S(C)(=O)=O)cc1 .
f

Each compound tested received a call. Report the one for CCC(C)(C)C1CCC(=NNC(=O)c2ccc(Br)o2)CC1 (centres undefined) .
t

Each compound tested received a call. Report the one for CSCc1ccc(C(=O)Nc2cc(C)cc(C)c2)cc1 .
t

Each compound tested received a call. Report the one for CC(C)(C)C1CCC(=NNC(=O)c2cc(-c3ccccc3)n[nH]2)CC1 (centres undefined) .
f

Each compound tested received a call. Report the one for CC1CCc2c(nc3ncnn3c2Nc2ccc(OC(F)(F)F)cc2)C1 (centres undefined) .
f

Each compound tested received a call. Report the one for N#Cc1ccc(-c2nc3cc(C#N)c(C#N)cc3nc2-c2ccccc2)cc1C#N .
f

Each compound tested received a call. Report the one for Cc1ccc2c(c1)N(CC(=O)N1CCC(C)CC1)C(=O)c1cccnc1O2 .
f

Each compound tested received a call. Report the one for CCO[C@H]1OC(C(=O)N2CCCCCCC2)=C[C@@H](c2ccc(C(F)(F)F)cc2)[C@@H]1CCCO .
f

Each compound tested received a call. Report the one for N#Cc1cc([N+](=O)[O-])ccc1Oc1cccc(/C=N/NC(=O)c2ccc(Cl)cc2)c1 .
f

Each compound tested received a call. Report the one for CC(=O)Nc1ccccc1NC(=O)c1cc(C)cc(C)c1 .
f

Each compound tested received a call. Report the one for Cc1ccc(-c2nnc(SC(C)C#N)n2N)cc1 (centres undefined) .
f
